TEST: Cassette pharmacokinetic study, intravenous or oral administration
Assay type: in vivo, female Balb/c nude mice
PROTOCOL CONDITIONS: female, Balb/c nude, mouse, whole blood; IV 0.5 mg/kg, N = 3, cassette; read-out: Vss
Returns true if the recorded Vd is greater than or equal to 2 L/kg, and false otherwise.

Example entries and their recorded answers appear below.
SMILES STRUCTURE	ASSIGNED CATEGORY
CCS(=O)(=O)Cc1ccc2c(c1)-c1cn(C)c(=O)cc1[C@H](C)N=C2c1ccc(F)cc1	false
CCS(=O)(=O)Nc1ccc(Oc2ccc(F)cc2F)c(-c2cn(C)c(=O)c3[nH]ccc23)c1	true
CCS(=O)(=O)Cc1ccc2c(c1)-c1cn(C)c(=O)cc1CN=C2c1ccc(F)cc1	false
CCS(=O)(=O)Nc1ccc2c(c1)-c1cn(C)c(=O)cc1CN=C2c1ccc(F)cc1	false

Note: attention shifts to another entry.
*Q* Determine whether measured Vd meets or exceeds 2 L/kg for CCS(=O)(=O)Nc1cc2c(cc1Cl)C(c1ccc(F)cc1)=NCc1cc(=O)n(C)cc1-2
*A* true

* * *

TEST: Metabolic stability in mouse liver microsomes
Type: in vitro ADME
PROTOCOL CONDITIONS: mouse liver microsomes 0.5 mg/mL, NADPH, 37° C.
PROPERTY: MLM_T1/2

Example cases with answers are listed next.
COMPOUND	MLM_T1/2
Cn1cc2c(cc1=O)CN=C(c1ccc(F)cc1)c1ccc(CS(C)(=O)=O)cc1-2 [Compound 4007]	815.54 min
CCS(=O)(=O)Cc1ccc2c(c1)-c1cn(C)c(=O)cc1CN=C2c1ccc(Cl)cc1 [Compound 4011]	1056.88 min
CCS(=O)(=O)Cc1ccc2c(c1)-c1cn(C)c(=O)cc1[C@H](C)N=C2c1ccc(F)cc1 [Compound 4026]	∞
CCNC(=O)C[C@@H]1N=C(c2ccc(Cl)cc2)c2ccccc2-c2cn(C)c(=O)cc21 [Compound 4016]	21.37 min
CCS(=O)(=O)Cc1ccc2c(c1)-c1nn(C)c(=O)cc1C(C)N=C2c1ccc(F)cc1 (stereo not shown) [Compound 4081]	∞
CCS(=O)(=O)Cc1ccc2c(c1)-c1cn(C)c(=O)cc1CN=C2c1ccc(F)cc1 [Compound 4009]	588.07 min

*Q* Can you look up the measured MLM_T1/2 of CCS(=O)(=O)Nc1ccc2c(c1)-c1cn(C)c(=O)cc1CN=C2c1ccc(F)cc1 [Compound 4018] for me?
*A* 352.12 min

* * *

TEST: Cassette pharmacokinetic study, intravenous or oral administration
Format: in vivo, female Balb/c nude mice
PROTOCOL CONDITIONS: female, Balb/c nude, mouse, whole blood; IV 0.5 mg/kg, N = 3, cassette
PROPERTY: AUC(0-inf) (ng·h/mL)
Report the figure in ng·h/mL without appending any unit label.

*Q* Can you look up the measured AUC(0-inf) of CCS(=O)(=O)Cc1ccc2c(c1)-c1cn(C)c(=O)cc1[C@H](C)N=C2c1ccc(F)cc1 for me?
*A* 1140

*Q* Can you look up the measured AUC(0-inf) of CCS(=O)(=O)Cc1ccc2c(c1)-c1cn(C)c(=O)cc1CN=C2c1ccc(F)cc1 for me?
*A* 590

*Q* Can you look up the measured AUC(0-inf) of CCS(=O)(=O)Nc1ccc(Oc2ccc(F)cc2F)c(-c2cn(C)c(=O)c3[nH]ccc23)c1 for me?
*A* 510

*Q* Can you look up the measured AUC(0-inf) of CCS(=O)(=O)Nc1ccc2c(c1)-c1cn(C)c(=O)cc1CN=C2c1ccc(F)cc1 for me?
*A* 201

*Q* Can you look up the measured AUC(0-inf) of CCS(=O)(=O)Nc1cc2c(cc1Cl)C(c1ccc(F)cc1)=NCc1cc(=O)n(C)cc1-2 for me?
*A* 771

* * *

Tested on: MV-4-11 cells
TEST: Inhibitory effect on MV-4-11 cells (CellTiter-Glo)
Assay type: cell-based
PROTOCOL CONDITIONS: Homo sapiens, MV4-11; 72 hours, CellTiter-Glo; read-out: MV-4-11
PROPERTY: pIC50
Scale: pIC50 equals -log10([C]), with [C] in mol/L.

*Q* Can you look up the measured pIC50 of C[C@@H]1N=C(c2ccc(F)cc2)c2ccc(CS(C)(=O)=O)cc2-c2cn(C)c(=O)cc21 for me?
*A* 8.15

* * *

TESTED TARGET: BRD4 (BD1) (Homo sapiens)
Construct: Each member comprises two tandem bromodomains (BD1 and BD2) for recognizing the acetylated lysine residues
TEST: BRD4 (BD1) bromodomain binding, HTRF
PROTOCOL CONDITIONS: 2 h incubation at r.t.
PROPERTY: IC50 (nM)
Report the figure in nM without appending any unit label.

Example cases with answers are listed next.
COMPOUND	RESULT UNITS	IC50
CC[C@@H]1N=C(c2ccc(F)cc2)c2cc(Cl)c(NS(=O)(=O)CC)cc2-c2cn(C)c(=O)cc21	nM	2
Cn1cc2c(cc1=O)[C@H](CC(N)=O)N=C(c1ccc(F)cc1)c1ccc(CS(C)(=O)=O)cc1-2	nM	2
CCS(=O)(=O)Cc1ccc2c(c1)-c1cn(C)c(=O)cc1N(C)N=C2c1ccc(F)cc1	nM	5
CCS(=O)(=O)Cc1ccc2c(c1)-c1cn(C)c(=O)cc1[C@H](C)N=C2c1ccc(Cl)cc1	nM	2
CC[C@@H]1N=C(c2ccc(F)cc2)c2cc(F)c(NS(=O)(=O)CC)cc2-c2cn(C)c(=O)cc21	nM	1
CCS(=O)(=O)Cc1ccc2c(c1)-c1cn(C)c(=O)cc1[C@H](C)N=C2c1cc(OC)c(F)cc1Cl	nM	5

Now look at this one.
*Q* Can you look up the measured IC50 of CCS(=O)(=O)Nc1cc2c(cc1F)C(c1ccc(F)cc1)=NC(C)c1cc(=O)n(C)nc1-2 (stereo not shown) for me?
*A* 5

* * *

Test system: MV-4-11 cells
TEST: Inhibitory effect on MV-4-11 cells (CellTiter-Glo)
Format: cell-based
PROTOCOL CONDITIONS: Homo sapiens, MV4-11; 72 hours, CellTiter-Glo; read-out: MV-4-11
PROPERTY: pIC50
Scale: pIC50 equals -log10([C]), with [C] in mol/L.

SMILES STRUCTURE	NUMERIC VALUE
CCS(=O)(=O)Cc1ccc2c(c1)-c1cn(C)c(=O)cc1[C@H](C)N=C2c1ccc(Cl)cc1	8.22

*Q* Can you look up the measured pIC50 of CCS(=O)(=O)Cc1ccc2c(c1)-c1cn(C)c(=O)cc1[C@H](C)N=C2c1ccc(O)cc1 for me?
*A* 7.96

*Q* Can you look up the measured pIC50 of CCS(=O)(=O)Cc1cnc2c(c1)-c1cn(C)c(=O)cc1CN=C2c1ccc(F)cc1 for me?
*A* 6.72

*Q* Can you look up the measured pIC50 of CCC(=O)Nc1cc2c(cc1F)C(c1ccc(F)cc1)=N[C@@H](C)c1cc(=O)n(C)cc1-2 for me?
*A* 7.51

* * *

TESTED TARGET: BRD4 (BD2) (Homo sapiens, UniProt O60885)
Construct: Each member comprises two tandem bromodomains (BD1 and BD2) for recognizing the acetylated lysine residues
TEST: BRD4 (BD2) bromodomain binding, HTRF
PROTOCOL CONDITIONS: 2 h incubation at r.t.
Listed here: items and their measured pIC50.
Scale: pIC50 equals -log10([C]), with [C] in mol/L.

Example cases with answers are listed next.
SMILES STRUCTURE	pIC50
CCS(=O)(=O)Nc1ccc2c(c1)-c1cn(C)c(=O)cc1CN=C2c1ccc(Cl)cc1	9.00
CCS(=O)(=O)Nc1cc2c(cc1Cl)C(c1ccc(F)cc1)=N[C@@H](C)c1cc(=O)n(C)cc1-2	9.00
C[C@@H]1N=C(c2ccc(F)cc2)c2cc(F)c(N)cc2-c2cn(C)c(=O)cc21	8.70
CCS(=O)(=O)Cc1ccc2c(c1)-c1cn(C)c(=O)cc1N(C)N=C2c1ccc(F)cc1Cl	9.15
CCS(=O)(=O)Cc1ccc2c(c1)-c1cn(C)c(=O)cc1CN=C2c1ccc(F)cc1	8.30

*Q* Can you look up the measured pIC50 of CNS(=O)(=O)Cc1ccc2c(c1)-c1cn(C)c(=O)cc1[C@H](C)N=C2c1ccc(F)cc1 for me?
*A* 9.00

*Q* Can you look up the measured pIC50 of CCS(=O)(=O)Nc1ccc2c(c1)-c1cn(C)c(=O)cc1CN=C2c1ccc(F)cc1 for me?
*A* 8.70

*Q* Can you look up the measured pIC50 of Cn1cc2c(cc1=O)[C@H](CC(N)=O)N=C(c1ccc(Cl)cc1)c1ccccc1-2 for me?
*A* 8.70

*Q* Can you look up the measured pIC50 of Cn1cc2c(cc1=O)CN=C(c1ccc(Cl)cc1)c1ccccc1-2 for me?
*A* 7.37

*Q* Can you look up the measured pIC50 of C[C@@H]1N=C(c2ccc(F)cc2)c2cc(Cl)c(NS(=O)(=O)C3CC3)cc2-c2cn(C)c(=O)cc21 for me?
*A* 9.00

*Q* Can you look up the measured pIC50 of CCNC(=O)C[C@@H]1N=C(c2ccc(Cl)cc2)c2ccccc2-c2cn(C)c(=O)cc21 for me?
*A* 9.00

*Q* Can you look up the measured pIC50 of CCS(=O)(=O)Cc1cc2c(cc1Cl)C(c1ccc(F)cc1)=N[C@@H](C)c1cc(=O)n(C)cc1-2 for me?
*A* 9.00

*Q* Can you look up the measured pIC50 of CCS(=O)(=O)Cc1ccc2c(c1)-c1cn(C)c(=O)cc1[C@H](C)N=C2c1ccc(OC)c(F)c1 for me?
*A* 9.00

*Q* Can you look up the measured pIC50 of C[C@@H]1N=C(c2ccc(F)cc2)c2cc(F)c(NS(C)(=O)=O)cc2-c2cn(C)c(=O)cc21 for me?
*A* 9.00

*Q* Can you look up the measured pIC50 of CCNC(=O)C[C@@H]1N=C(c2ccc(F)cc2)c2c(ccc(OC)c2F)-c2cn(C)c(=O)cc21 for me?
*A* 9.00

Every entry's value here was drawn from patent US20190284192A1.
